system: Rat Hepatocytes; assay: Hepatic intracellular concentration (ICC) in rat hepatocytes, observed vs predicted; type: in vitro ADME; conditions: one-step method with BSA; 1 μM
Field: Observed ICC (uM) BSA. Provide a value for each of the compounds that follow.
Give bare numbers, in µM.

Take a look at these entries with their results.
{"compound": "CC(C)c1nc(N(C)S(C)(=O)=O)nc(-c2ccc(F)cc2)c1/C=C/[C@@H](O)C[C@@H](O)CC(=O)O", "target": "Rat Hepatocytes", "Observed ICC (uM) BSA (µM)": 6.81}
{"compound": "CCCCC(=O)N(Cc1ccc(-c2ccccc2-c2nnn[nH]2)cc1)[C@H](C(=O)O)C(C)C", "target": "Rat Hepatocytes", "Observed ICC (uM) BSA (µM)": 0.22}
{"compound": "CN(Cc1cnc2nc(N)nc(N)c2n1)c1ccc(C(=O)N[C@@H](CCC(=O)O)C(=O)O)cc1 [Methotrexate]", "target": "Rat Hepatocytes", "Observed ICC (uM) BSA (µM)": 0.47}
{"compound": "CC1(C)SSC(C)(C)[C@@H](NC(=O)[C@@H](N)Cc2ccc(O)cc2)C(=O)NCC(=O)N[C@@H](Cc2ccccc2)C(=O)N[C@H]1C(=O)O", "target": "Rat Hepatocytes", "Observed ICC (uM) BSA (µM)": 1.98}

Entry C[C@H]1O[C@@H](O[C@H]2[C@@H](O)C[C@H](O[C@H]3[C@@H](O)C[C@H](O[C@H]4CC[C@@]5(C)[C@H](CC[C@@H]6[C@@H]5C[C@@H](O)[C@]5(C)[C@@H](C7=CC(=O)OC7)CC[C@]65O)C4)O[C@@H]3C)O[C@@H]2C)C[C@H](O)[C@@H]1O under Rat Hepatocytes had Observed ICC (uM) BSA of 1.29

---

Exercise: state measured Intrinsic Biliary Clearance, BSA for each of the compounds provided.
tested on: sandwich-cultured rat hepatocytes; experiment: Intrinsic biliary clearance in sandwich-cultured rat hepatocytes
Numbers only, in mL/min/kg.

Give Intrinsic Biliary Clearance, BSA for all compounds that follow.
1. O=C(O)C[C@H](O)C[C@H](O)/C=C/c1c(C2CC2)nc2ccccc2c1-c1ccc(F)cc1
2. CC[C@H](C)C(=O)O[C@H]1C[C@H](O)C=C2C=C[C@H](C)[C@H](CC[C@@H](O)C[C@@H](O)CC(=O)O)[C@H]21
3. CCCCC(=O)N(Cc1ccc(-c2ccccc2-c2nnn[nH]2)cc1)[C@H](C(=O)O)C(C)C

### Response
1. 140
2. 6.47
3. 3.06

---

molecular target: 4% BSA (Bos taurus); experiment: Free fraction by equilibrium dialysis in 4% BSA; type: in vitro ADME; settings: bovine, DPDPE line: 1 uM
Sequence (P02769 25-607): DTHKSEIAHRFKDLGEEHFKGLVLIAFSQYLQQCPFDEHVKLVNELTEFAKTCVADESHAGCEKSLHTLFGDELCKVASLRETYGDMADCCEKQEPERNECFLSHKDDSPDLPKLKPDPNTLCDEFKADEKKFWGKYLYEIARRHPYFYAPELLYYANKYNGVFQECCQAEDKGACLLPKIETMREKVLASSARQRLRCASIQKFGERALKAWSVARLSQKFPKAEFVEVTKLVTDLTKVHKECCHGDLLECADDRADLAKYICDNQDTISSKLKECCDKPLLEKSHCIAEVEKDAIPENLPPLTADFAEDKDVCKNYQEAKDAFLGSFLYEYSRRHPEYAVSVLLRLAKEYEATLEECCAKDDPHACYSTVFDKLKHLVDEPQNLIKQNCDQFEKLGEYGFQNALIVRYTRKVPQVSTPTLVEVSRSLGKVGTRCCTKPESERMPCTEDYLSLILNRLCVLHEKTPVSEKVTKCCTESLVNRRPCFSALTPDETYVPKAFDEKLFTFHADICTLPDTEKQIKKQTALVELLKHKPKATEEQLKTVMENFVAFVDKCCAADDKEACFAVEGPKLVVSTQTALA
# note: boundary value 0.1 maps to -1; fraction unbound below it maps to 1

Before answering, review these 5 worked examples.
{"molecule": "O=C(O)C[C@H](O)C[C@H](O)/C=C/c1c(C2CC2)nc2ccccc2c1-c1ccc(F)cc1 [Pitavastatin]", "groupLabel": 1}
{"molecule": "CN(Cc1cnc2nc(N)nc(N)c2n1)c1ccc(C(=O)N[C@@H](CCC(=O)O)C(=O)O)cc1 [Methotrexate]", "groupLabel": -1}
{"molecule": "CC(C)c1nc(N(C)S(C)(=O)=O)nc(-c2ccc(F)cc2)c1/C=C/[C@@H](O)C[C@@H](O)CC(=O)O [Rosuvastatin]", "groupLabel": -1}
{"molecule": "CCCCC(=O)N(Cc1ccc(-c2ccccc2-c2nnn[nH]2)cc1)[C@H](C(=O)O)C(C)C [Valsartan]", "groupLabel": 1}
{"molecule": "C[C@H]1O[C@@H](O[C@H]2[C@@H](O)C[C@H](O[C@H]3[C@@H](O)C[C@H](O[C@H]4CC[C@@]5(C)[C@H](CC[C@@H]6[C@@H]5C[C@@H](O)[C@]5(C)[C@@H](C7=CC(=O)OC7)CC[C@]65O)C4)O[C@@H]3C)O[C@@H]2C)C[C@H](O)[C@@H]1O [Digoxin]", "groupLabel": -1}

Here's the next entry for you.
### Prompt Say whether its fraction unbound is strictly beneath 0.1. Entry: CC[C@H](C)C(=O)O[C@H]1C[C@H](O)C=C2C=C[C@H](C)[C@H](CC[C@@H](O)C[C@@H](O)CC(=O)O)[C@H]21 [Pravastatin]
### Response -1

Values from patent US12650422B2
